Tested on: ECHOG Barnyardgrass
protocol.notes: Preemergence herbicidal evaluation, ECHOG
Format: in vivo, Echinochloa crus-galli, (L.) Beau
Design: scale not given here
protocol.conditions: preemergence, rate 0.032 kg/ha
ECHCG herbicidal rating by entry:

- COc1ccc(C)cc1-n1nnc2cc(F)c(-n3c(=O)cc(C(F)(F)F)n(C)c3=O)cc21 [Example 18]: 8.0
- Cc1ccc(OCC(=O)O)cc1-n1nnc2cc(F)c(-n3c(=O)cc(C(F)(F)F)n(C)c3=O)cc21 [Example 37]: 0.0
- CCc1cccc(-n2nnc3cc(F)c(-n4c(=O)cc(C(F)(F)F)n(C)c4=O)cc32)c1 [Example 29]: 4.0

Next, consider the following compound.
input: Given the compound Cc1ccc(O)c(-n2nnc3cc(F)c(-n4c(=O)cc(C(F)(F)F)n(C)c4=O)cc32)c1 [Example 31] , what is its reported ECHCG herbicidal rating?
output: 0.0

====

Test system: GLXMAW Soybean, Williams
protocol.notes: Preemergence herbicidal evaluation, GLXMAW
Assay type: in vivo, Glycine max, (L.) Merr. cv Williams
Parameters: scale not given here
protocol.conditions: preemergence, rate 0.125 kg/ha
In this section, each of the molecules is paired with its reported GLXMAW herbicidal rating.
Respond numerically, and do not add a unit to the figure.

• Cc1ccc(-n2nnc3cc(F)c(-n4c(=O)cc(C(F)(F)F)n(C)c4=O)cc32)cc1C = 0.0
• COC(=O)COc1ccccc1-n1nnc2cc(F)c(-n3c(=O)cc(C(F)(F)F)n(C)c3=O)cc21 = 2.5
• Cc1cc(O)ccc1-n1nnc2cc(F)c(-n3c(=O)cc(C(F)(F)F)n(C)c3=O)cc21 = 0.0

input: Return GLXMAW herbicidal rating measured with GLXMAW Soybean, Williams given this molecule: Cc1ccc(O)c(-n2nnc3cc(F)c(-n4c(=O)cc(C(F)(F)F)n(C)c4=O)cc32)c1
output: 0.0

input: Checklist item: GLXMAW herbicidal rating tested on GLXMAW Soybean, Williams, entry COC(=O)C(C)Oc1ccc(C)cc1-n1nnc2cc(F)c(-n3c(=O)cc(C(F)(F)F)n(C)c3=O)cc21 (stereo not shown) , value?
output: 2.0

input: Request body: readout GLXMAW herbicidal rating, system GLXMAW Soybean, Williams, query Cc1ccc(OCC(=O)O)cc1-n1nnc2cc(F)c(-n3c(=O)cc(C(F)(F)F)n(C)c3=O)cc21 . Return the value.
output: 0.0

input: # query: GLXMAW herbicidal rating | item COCc1ccccc1-n1nnc2cc(F)c(-n3c(=O)cc(C(F)(F)F)n(C)c3=O)cc21 | system: GLXMAW Soybean, Williams
output: 5.0

input: Item Cc1ccc(-n2nnc3cc(F)c(-n4c(=O)cc(C(F)(F)F)n(C)c4=O)cc32)cc1 with GLXMAW Soybean, Williams - GLXMAW herbicidal rating?
output: 4.0

====

Tested on: GALAP Galium
protocol.notes: Preemergence herbicidal evaluation, GALAP
Type: in vivo, Galium aparine
Set-up: scale not given here
protocol.conditions: preemergence, rate 0.062 kg/ha
This listing pairs compounds with measured GALAP herbicidal rating.
# answer = number (no unit)

Example entries and their recorded answers appear below.
- Cc1ccccc1-n1nnc2cc(F)c(-n3c(=O)cc(C(F)(F)F)n(C)c3=O)cc21: 0.0
- Cn1c(C(F)(F)F)cc(=O)n(-c2cc3c(cc2F)nnn3-c2ccc(OCC(=O)O)cc2)c1=O: 4.0

input: Give its GALAP herbicidal rating value. Item: C#CCOC(=O)COc1ccc(C)cc1-n1nnc2cc(F)c(-n3c(=O)cc(C(F)(F)F)n(C)c3=O)cc21
output: 7.0

input: Entry under review: Cc1ccc(-n2nnc3cc(F)c(-n4c(=O)cc(C(F)(F)F)n(C)c4=O)cc32)cc1C . Reported GALAP herbicidal rating?
output: 0.0

====

Test system: CHEAL Lambsquarters, Common
protocol.notes: Preemergence herbicidal evaluation, CHEAL
Type: in vivo, Chenopodium album, L.
Parameters: scale not given here
protocol.conditions: preemergence, rate 0.016 kg/ha
measured.metric: CHEAL herbicidal rating
API doc: respond with a numeric literal and nothing else, no unit.

Guide cases for CHEAL herbicidal rating, answers given:
• C#CCOC(=O)COc1ccc(C)c(-n2nnc3cc(F)c(-n4c(=O)cc(C(F)(F)F)n(C)c4=O)cc32)c1 = 0.0
• Cc1ccc(O)c(-n2nnc3cc(F)c(-n4c(=O)cc(C(F)(F)F)n(C)c4=O)cc32)c1 = 0.0
• COC(=O)C(C)Oc1ccc(C)cc1-n1nnc2cc(F)c(-n3c(=O)cc(C(F)(F)F)n(C)c3=O)cc21 (stereo not shown) = 4.0
• COC(=O)COc1ccc(C)c(-n2nnc3cc(F)c(-n4c(=O)cc(C(F)(F)F)n(C)c4=O)cc32)c1 = 9.0
• COc1ccc(-n2nnc3cc(F)c(-n4c(=O)cc(C(F)(F)F)n(C)c4=O)cc32)c(C)c1 = 0.0
• Cc1ccc(-n2nnc3cc(F)c(-n4c(=O)cc(C(F)(F)F)n(C)c4=O)cc32)cc1 = 9.0
• C=CCOc1ccc(-n2nnc3cc(F)c(-n4c(=O)cc(C(F)(F)F)n(C)c4=O)cc32)c(C)c1 = 9.0
• C=CCOc1ccc(C)cc1-n1nnc2cc(F)c(-n3c(=O)cc(C(F)(F)F)n(C)c3=O)cc21 = 9.0

input: Could you tell me which CHEAL herbicidal rating is on file for COC(=O)COc1ccc(C)cc1-n1nnc2cc(F)c(-n3c(=O)cc(C(F)(F)F)n(C)c3=O)cc21 ?
output: 9.0

input: For the compound COC(=O)COc1ccc(-n2nnc3cc(F)c(-n4c(=O)cc(C(F)(F)F)n(C)c4=O)cc32)c(C)c1 , what CHEAL herbicidal rating is on record?
output: 3.0

====

Each entry below carries its reported IPOHE herbicidal rating.
Test system: IPOHE Morningglory, Ivyleaf
protocol.notes: Preemergence herbicidal evaluation, IPOHE
Assay type: in vivo, Ipomoea hederacea, (L.) Jacq.
Design: scale not given here
protocol.conditions: preemergence, rate 0.016 kg/ha
Answer with a bare number; do not write a unit.

The cases that follow already have their IPOHE herbicidal rating on record.
* COc1ccc(-n2nnc3cc(F)c(-n4c(=O)cc(C(F)(F)F)n(C)c4=O)cc32)c(C)c1 [Example 24] | 0.0
* C#CCOC(=O)COc1ccc(C)c(-n2nnc3cc(F)c(-n4c(=O)cc(C(F)(F)F)n(C)c4=O)cc32)c1 [Example 36] | 0.0
* CC(C)c1ccc(-n2nnc3cc(F)c(-n4c(=O)cc(C(F)(F)F)n(C)c4=O)cc32)cc1 [Example 21] | 0.0
* CCc1cccc(-n2nnc3cc(F)c(-n4c(=O)cc(C(F)(F)F)n(C)c4=O)cc32)c1 [Example 29] | 0.0
* COC(=O)COc1ccc(C)c(-n2nnc3cc(F)c(-n4c(=O)cc(C(F)(F)F)n(C)c4=O)cc32)c1 [Example 38] | 0.0

input: Could you share which IPOHE herbicidal rating value was measured for C=CCOc1ccc(-n2nnc3cc(F)c(-n4c(=O)cc(C(F)(F)F)n(C)c4=O)cc32)c(C)c1 [Example 43] ?
output: 0.0

input: // query IPOHE herbicidal rating value for entry C=CCOc1ccc(C)cc1-n1nnc2cc(F)c(-n3c(=O)cc(C(F)(F)F)n(C)c3=O)cc21 [Example 42]
output: 0.0

====

System: GLXMAW Soybean, Williams
protocol.notes: Postemergence herbicidal evaluation, GLXMAW
Assay type: in vivo, Glycine max, (L.) Merr. cv Williams
Design: scale not given here
protocol.conditions: 0.032 kg/ha, postemergence spray, rated about two-three weeks after treatment
measured.metric: Postemergence herbicidal rating GLXMAW

• Cc1ccc(OCC(=O)O)cc1-n1nnc2cc(F)c(-n3c(=O)cc(C(F)(F)F)n(C)c3=O)cc21 [Example 37] = 6.5
• Cc1ccc(O)cc1-n1nnc2cc(F)c(-n3c(=O)cc(C(F)(F)F)n(C)c3=O)cc21 [Example 32] = 3.0
• CCc1ccccc1-n1nnc2cc(F)c(-n3c(=O)cc(C(F)(F)F)n(C)c3=O)cc21 [Example 25] = 5.0
• Cc1ccc(O)c(-n2nnc3cc(F)c(-n4c(=O)cc(C(F)(F)F)n(C)c4=O)cc32)c1 [Example 31] = 4.5
• COc1ccc(-n2nnc3cc(F)c(-n4c(=O)cc(C(F)(F)F)n(C)c4=O)cc32)c(C)c1 [Example 24] = 4.0
• COC(=O)COc1ccc(C)c(-n2nnc3cc(F)c(-n4c(=O)cc(C(F)(F)F)n(C)c4=O)cc32)c1 [Example 38] = 6.0

Now consider the entry below.
input: Given C#CCOC(=O)COc1ccc(C)c(-n2nnc3cc(F)c(-n4c(=O)cc(C(F)(F)F)n(C)c4=O)cc32)c1 [Example 36] , state its recorded Postemergence herbicidal rating GLXMAW.
output: 4.0

====

Tested on: GLXMAW Soybean, Williams
protocol.notes: Preemergence herbicidal evaluation, GLXMAW
Assay type: in vivo, Glycine max, (L.) Merr. cv Williams
Parameters: scale not given here
protocol.conditions: preemergence, rate 0.062 kg/ha
measured.metric: GLXMAW herbicidal rating
// return a plain number; no unit text

Please review the entries below; each comes with its answer.
- CCc1ccc(-n2nnc3cc(F)c(-n4c(=O)cc(C(F)(F)F)n(C)c4=O)cc32)cc1: 3.0
- CC(C)c1ccc(-n2nnc3cc(F)c(-n4c(=O)cc(C(F)(F)F)n(C)c4=O)cc32)cc1: 0.5
- Cc1ccc(OCC(=O)O)cc1-n1nnc2cc(F)c(-n3c(=O)cc(C(F)(F)F)n(C)c3=O)cc21: 0.0
- COc1ccc(-n2nnc3cc(F)c(-n4c(=O)cc(C(F)(F)F)n(C)c4=O)cc32)c(C)c1: 2.0
- COC(=O)COc1ccc(-n2nnc3cc(F)c(-n4c(=O)cc(C(F)(F)F)n(C)c4=O)cc32)c(C)c1: 0.0
- COc1ccc(C)cc1-n1nnc2cc(F)c(-n3c(=O)cc(C(F)(F)F)n(C)c3=O)cc21: 7.5

Lab note: next molecule to report on.
input: What GLXMAW herbicidal rating value was documented for this molecule, COC(=O)COc1ccc(C)c(-n2nnc3cc(F)c(-n4c(=O)cc(C(F)(F)F)n(C)c4=O)cc32)c1 ?
output: 0.0
